molecular target: human OCT1 (Homo sapiens); experiment: in vitro; conditions: human, pH 7.4
Sequence (O15245 whole entry): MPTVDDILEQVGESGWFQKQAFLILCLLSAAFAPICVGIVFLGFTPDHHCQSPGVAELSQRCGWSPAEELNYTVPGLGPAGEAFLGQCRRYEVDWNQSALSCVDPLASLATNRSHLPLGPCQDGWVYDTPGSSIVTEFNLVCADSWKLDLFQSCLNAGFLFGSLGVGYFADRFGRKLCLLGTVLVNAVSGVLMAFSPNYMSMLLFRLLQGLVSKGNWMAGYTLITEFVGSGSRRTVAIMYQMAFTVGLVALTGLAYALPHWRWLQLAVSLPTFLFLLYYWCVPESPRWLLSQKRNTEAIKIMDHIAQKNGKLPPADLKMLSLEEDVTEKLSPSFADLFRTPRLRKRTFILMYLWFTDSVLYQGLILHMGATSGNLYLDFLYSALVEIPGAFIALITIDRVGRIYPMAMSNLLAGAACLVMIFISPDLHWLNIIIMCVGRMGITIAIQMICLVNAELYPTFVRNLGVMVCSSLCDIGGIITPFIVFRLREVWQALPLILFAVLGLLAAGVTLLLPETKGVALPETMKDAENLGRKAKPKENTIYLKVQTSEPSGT
readoutName: Km (µM)
Give the value in µM but do not write µM after it.

# input Give me measured Km, please, for this compound: C[N+]1(C)[C@@H]2C[C@@H](OC(=O)C(O)(c3cccs3)c3cccs3)C[C@H]1[C@@H]1O[C@@H]12
# output 7.82

----------
molecular target: human OCT1 (Homo sapiens); experiment: Cellular uptake by HEK293 cells overexpressing human OCT1 (wildtype); conditions: read-out: KM ± SD, hOCT1; HEK293 stably transfected, 2 min uptake, 37 °C, pH 7.4
Collected Km values appear next to each entry.
Give the value in µM but do not write µM after it.

> print(dat)
           structuresmiles  readoutname  recordedmeasurement
1  C[n+]1ccc(-c2ccccc2)cc1           Km                 71.1

Turning to the following molecule.
# input Give Km for this entry on human OCT1 (Homo sapiens): CN(C)c1ccc(C=Cc2cc[n+](C)cc2)cc1
# output 63
